Catalogue of Ki values
Molecular target: B1 bradykinin receptor (Oryctolagus cuniculus)
Sequence (P48748 whole entry): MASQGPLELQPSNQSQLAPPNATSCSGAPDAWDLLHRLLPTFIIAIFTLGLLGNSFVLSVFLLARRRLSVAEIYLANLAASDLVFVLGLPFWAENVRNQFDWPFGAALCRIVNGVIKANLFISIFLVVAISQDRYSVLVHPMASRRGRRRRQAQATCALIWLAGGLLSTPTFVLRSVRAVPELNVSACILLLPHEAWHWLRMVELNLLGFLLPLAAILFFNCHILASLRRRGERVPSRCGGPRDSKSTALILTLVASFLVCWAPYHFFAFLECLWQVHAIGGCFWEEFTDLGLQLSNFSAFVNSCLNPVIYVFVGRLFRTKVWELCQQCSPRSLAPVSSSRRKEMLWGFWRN
Experiment: Binding affinity to rabbit bradykinin B1 receptor

Below are worked cases with known answers.
# input Return reported Ki. Input compound: Cc1noc(-c2c(F)cccc2-c2ccc([C@@H](C)Nc3nccc(Cl)c3NC(=O)CC#N)cc2)n1
# output 2.7 nM (antagonist)

# input Return reported Ki. Input compound: COC(=O)c1c(Cl)cccc1-c1ccc([C@@H](C)Nc2nccc(Cl)c2NC(=O)CC#N)cc1
# output 1.1 nM (antagonist)

# input Return reported Ki. Input compound: C[C@@H](Nc1nccc(Cl)c1NC(=O)CC#N)c1ccc(-c2cccc(F)c2-c2nnnn2C)cc1
# output 41.5 nM (antagonist)

# input Return reported Ki. Input compound: COC(=O)c1c(F)cccc1-c1ccc([C@@H](C)Nc2nccc(Cl)c2NC(=O)CC#N)cc1
# output 0.69 nM (antagonist)

Continuing:
# input Return reported Ki. Input compound: C[C@@H](Nc1nccc(Cl)c1NC(=O)CC#N)c1ccc(-c2cccc(F)c2-c2nnn(C)n2)cc1
# output 3 nM (antagonist)
